test: activators of glucose-dependent insulin secretion, dose response, cell-based, INS-1E, Gaussia luciferase, luminescence, cherry-pick, set 2 (AID 977607); settings: INS-1E GLuc insulin secretion reporter, 2-3 h, hits give high values; at 35 µM, 100% = signal doubled over neutral wells unless noted;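 further: 0% = median of the plate neutral control wells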
The whole screen tested about 1,500 compounds, of which about 460 (31%) were called active. Not shown: some 1% with an inconclusive outcome. Not all results are given here. Potency and affinity values are given separately.
max activation for assorted compounds

Task: Please report max activation for the following compound: O=C(c1ccc2c(c1)OCO2)N1CCc2ccccc2C1
Output: 14.5% (inactive)

Task: Consider the compound O=c1c(Cc2ccc(Cl)cc2Cl)c(O)ccn1CC(F)(F)F . State its measured max activation.
Output: 17.3% (inactive)

Task: Look up max activation of CC(C)Oc1ccc(C(=O)CCN2CCOCC2)cc1 and report it.
Output: -16% (inactive)
